System: Staphylococcus aureus
assay-explanation: Minimum inhibitory concentration against Staphylococcus aureus L 165
Format: functional
Hi there, I'd appreciate the recorded MIC for every entry that follows.
Respond with the bare value in µg/mL.

Entry under review: CC(=O)N[C@@H]1[C@H](O[C@@H]2c3ccc(c(Cl)c3)Oc3cc4cc(c3O[C@@H]3O[C@@H](CO)[C@@H](O)[C@H](O)[C@@H]3NC(=O)CCCCCCC(C)C)Oc3ccc(cc3Cl)C[C@H]3NC(=O)[C@H](N)c5ccc(O)c(c5)Oc5cc(O)cc(c5)[C@H](NC3=O)C(=O)N[C@H]4C(=O)N[C@H]3C(=O)N[C@@H]2C(=O)N[C@H](C(=O)NCCCN2CCCCN(CCCN)CCCC2)c2cc(O)cc(O[C@H]4O[C@H](CO)[C@@H](O)[C@@H](O)[C@@H]4O)c2-c2cc3ccc2O)O[C@@H](CO)[C@@H](O)[C@@H]1O . Reported MIC?
0.25

Entry under review: CC(=O)N[C@@H]1[C@H](O[C@@H]2c3ccc(c(Cl)c3)Oc3cc4cc(c3O[C@@H]3O[C@@H](CO)[C@@H](O)[C@H](O)[C@@H]3NC(=O)CCCCCCC(C)C)Oc3ccc(cc3Cl)C[C@H]3NC(=O)[C@H](N)c5ccc(O)c(c5)Oc5cc(O)cc(c5)[C@H](NC3=O)C(=O)N[C@H]4C(=O)N[C@H]3C(=O)N[C@@H]2C(=O)N[C@H](C(=O)NCCCNCCNCCCN)c2cc(O)cc(O[C@H]4O[C@H](CO)[C@@H](O)[C@@H](O)[C@@H]4O)c2-c2cc3ccc2O)O[C@@H](CO)[C@@H](O)[C@@H]1O . Reported MIC?
0.25

Entry under review: CC(=O)N[C@@H]1[C@H](O[C@@H]2c3ccc(c(Cl)c3)Oc3cc4cc(c3O[C@@H]3O[C@@H](CO)[C@@H](O)[C@H](O)[C@@H]3NC(=O)CCCCCCC(C)C)Oc3ccc(cc3Cl)C[C@H]3NC(=O)[C@H](N)c5ccc(O)c(c5)Oc5cc(O)cc(c5)[C@H](NC3=O)C(=O)N[C@H]4C(=O)N[C@H]3C(=O)N[C@@H]2C(=O)N[C@H](C(=O)NCCCNCCCN)c2cc(O)cc(O[C@H]4O[C@H](CO)[C@@H](O)[C@@H](O)[C@@H]4O)c2-c2cc3ccc2O)O[C@@H](CO)[C@@H](O)[C@@H]1O . Reported MIC?
1

Entry under review: CC(=O)N[C@@H]1[C@H](O[C@@H]2c3ccc(c(Cl)c3)Oc3cc4cc(c3O[C@@H]3O[C@@H](CO)[C@@H](O)[C@H](O)[C@@H]3NC(=O)CCCCCCC(C)C)Oc3ccc(cc3Cl)C[C@H]3NC(=O)[C@H](N)c5ccc(O)c(c5)Oc5cc(O)cc(c5)[C@H](NC3=O)C(=O)N[C@H]4C(=O)N[C@H]3C(=O)N[C@@H]2C(=O)N[C@H](C(=O)NCCNCCN)c2cc(O)cc(O[C@H]4O[C@H](CO)[C@@H](O)[C@@H](O)[C@@H]4O)c2-c2cc3ccc2O)O[C@@H](CO)[C@@H](O)[C@@H]1O . Reported MIC?
0.25

Entry under review: CC(=O)N[C@@H]1[C@H](O[C@@H]2c3ccc(c(Cl)c3)Oc3cc4cc(c3O[C@@H]3O[C@@H](CO)[C@@H](O)[C@H](O)[C@@H]3NC(=O)CCCCCCC(C)C)Oc3ccc(cc3Cl)C[C@H]3NC(=O)[C@H](N)c5ccc(O)c(c5)Oc5cc(O)cc(c5)[C@H](NC3=O)C(=O)N[C@H]4C(=O)N[C@H]3C(=O)N[C@@H]2C(=O)N[C@H](C(=O)NCCCNCCCCNCCCN)c2cc(O)cc(O[C@H]4O[C@H](CO)[C@@H](O)[C@@H](O)[C@@H]4O)c2-c2cc3ccc2O)O[C@@H](CO)[C@@H](O)[C@@H]1O . Reported MIC?
0.125

Entry under review: NCCCN1CCCCN(CCCNC(=O)[C@H]2NC(=O)[C@H]3NC(=O)[C@H](NC(=O)[C@@H]4NC(=O)[C@H]5NC(=O)[C@@H](Cc6ccc(c(Cl)c6)Oc6cc4cc(c6O)Oc4ccc(cc4Cl)[C@H]3O)NC(=O)[C@H](N)c3ccc(O)c(c3)Oc3cc(O)cc5c3)c3ccc(O)c(c3)-c3c(O)cc(O)cc32)CCCC1 . Reported MIC?
0.063

Entry under review: CC(=O)N[C@@H]1[C@H](O[C@@H]2c3ccc(c(Cl)c3)Oc3cc4cc(c3O[C@@H]3O[C@@H](CO)[C@@H](O)[C@H](O)[C@@H]3NC(=O)CCCCCCC(C)C)Oc3ccc(cc3Cl)C[C@H]3NC(=O)[C@H](N)c5ccc(O)c(c5)Oc5cc(O)cc(c5)[C@H](NC3=O)C(=O)N[C@H]4C(=O)N[C@H]3C(=O)N[C@@H]2C(=O)N[C@H](C(=O)N2CCNCCNCCNCCNCCNCC2)c2cc(O)cc(O[C@H]4O[C@H](CO)[C@@H](O)[C@@H](O)[C@@H]4O)c2-c2cc3ccc2O)O[C@@H](CO)[C@@H](O)[C@@H]1O . Reported MIC?
0.25

Entry under review: NCCCNCCNCCCNC(=O)[C@H]1NC(=O)[C@H]2NC(=O)[C@H](NC(=O)[C@@H]3NC(=O)[C@H]4NC(=O)[C@@H](Cc5ccc(c(Cl)c5)Oc5cc3cc(c5O)Oc3ccc(cc3Cl)[C@H]2O)NC(=O)[C@H](N)c2ccc(O)c(c2)Oc2cc(O)cc4c2)c2ccc(O)c(c2)-c2c(O)cc(O)cc21 . Reported MIC?
0.125

Entry under review: NCCCNCCCNCCCNC(=O)[C@H]1NC(=O)[C@H]2NC(=O)[C@H](NC(=O)[C@@H]3NC(=O)[C@H]4NC(=O)[C@@H](Cc5ccc(c(Cl)c5)Oc5cc3cc(c5O)Oc3ccc(cc3Cl)[C@H]2O)NC(=O)[C@H](N)c2ccc(O)c(c2)Oc2cc(O)cc4c2)c2ccc(O)c(c2)-c2c(O)cc(O)cc21 . Reported MIC?
0.063

Entry under review: N[C@H]1C(=O)N[C@@H]2Cc3ccc(c(Cl)c3)Oc3cc4cc(c3O)Oc3ccc(cc3Cl)[C@@H](O)[C@@H]3NC(=O)[C@H](NC(=O)[C@@H]4NC(=O)[C@@H](NC2=O)c2cc(O)cc(c2)Oc2cc1ccc2O)c1ccc(O)c(c1)-c1c(O)cc(O)cc1[C@@H](C(=O)O)NC3=O . Reported MIC?
0.063

* * *

System: Streptococcus pyogenes
assay-explanation: Minimum inhibitory concentration of compound was determined against Streptococcus pyogenes L 49 in mouse
Type: functional
endpoint-name: MIC (µg/mL)
Respond with the bare value in µg/mL.

Entry under review: N[C@H]1C(=O)N[C@@H]2Cc3ccc(c(Cl)c3)Oc3cc4cc(c3O)Oc3ccc(cc3Cl)[C@@H](O)[C@@H]3NC(=O)[C@H](NC(=O)[C@@H]4NC(=O)[C@@H](NC2=O)c2cc(O)cc(c2)Oc2cc1ccc2O)c1ccc(O)c(c1)-c1c(O)cc(O)cc1[C@@H](C(=O)O)NC3=O [TEICOPLANIN AGLYCON] . Reported MIC?
0.13

Entry under review: NCCCCNCCCNC(=O)[C@H]1NC(=O)[C@H]2NC(=O)[C@H](NC(=O)[C@@H]3NC(=O)[C@H]4NC(=O)[C@@H](Cc5ccc(c(Cl)c5)Oc5cc3cc(c5O)Oc3ccc(cc3Cl)[C@H]2O)NC(=O)[C@H](N)c2ccc(O)c(c2)Oc2cc(O)cc4c2)c2ccc(O)c(c2)-c2c(O)cc(O)cc21 . Reported MIC?
0.06

Entry under review: NCCCNCCCNC(=O)[C@H]1NC(=O)[C@H]2NC(=O)[C@H](NC(=O)[C@@H]3NC(=O)[C@H]4NC(=O)[C@@H](Cc5ccc(c(Cl)c5)Oc5cc3cc(c5O)Oc3ccc(cc3Cl)[C@H]2O)NC(=O)[C@H](N)c2ccc(O)c(c2)Oc2cc(O)cc4c2)c2ccc(O)c(c2)-c2c(O)cc(O)cc21 . Reported MIC?
0.13

* * *

Hi there, I'd appreciate the recorded MIC for every entry that follows.
Tested on: Staphylococcus aureus
assay-explanation: Minimum inhibitory concentration against Staphylococcus aureus L 165
Assay type: functional
Respond with the bare value in µg/mL.

Entry under review: NCCN(CCN)CCNC(=O)[C@H]1NC(=O)[C@H]2NC(=O)[C@H](NC(=O)[C@@H]3NC(=O)[C@H]4NC(=O)[C@@H](Cc5ccc(c(Cl)c5)Oc5cc3cc(c5O)Oc3ccc(cc3Cl)[C@H]2O)NC(=O)[C@H](N)c2ccc(O)c(c2)Oc2cc(O)cc4c2)c2ccc(O)c(c2)-c2c(O)cc(O)cc21 . Reported MIC?
0.063

Entry under review: NCCCCNCCCNC(=O)[C@H]1NC(=O)[C@H]2NC(=O)[C@H](NC(=O)[C@@H]3NC(=O)[C@H]4NC(=O)[C@@H](Cc5ccc(c(Cl)c5)Oc5cc3cc(c5O)Oc3ccc(cc3Cl)[C@H]2O)NC(=O)[C@H](N)c2ccc(O)c(c2)Oc2cc(O)cc4c2)c2ccc(O)c(c2)-c2c(O)cc(O)cc21 . Reported MIC?
0.063

Entry under review: CC(=O)N[C@@H]1[C@H](O[C@@H]2c3ccc(c(Cl)c3)Oc3cc4cc(c3O[C@@H]3O[C@@H](CO)[C@@H](O)[C@H](O)[C@@H]3NC(=O)CCCCCCC(C)C)Oc3ccc(cc3Cl)C[C@H]3NC(=O)[C@H](N)c5ccc(O)c(c5)Oc5cc(O)cc(c5)[C@H](NC3=O)C(=O)N[C@H]4C(=O)N[C@H]3C(=O)N[C@@H]2C(=O)N[C@H](C(=O)NCCCN(CCCN)CCCN)c2cc(O)cc(O[C@H]4O[C@H](CO)[C@@H](O)[C@@H](O)[C@@H]4O)c2-c2cc3ccc2O)O[C@@H](CO)[C@@H](O)[C@@H]1O . Reported MIC?
0.125

Entry under review: CC(=O)N[C@@H]1[C@H](O[C@@H]2c3ccc(c(Cl)c3)Oc3cc4cc(c3O[C@@H]3O[C@@H](CO)[C@@H](O)[C@H](O)[C@@H]3NC(=O)CCCCCCC(C)C)Oc3ccc(cc3Cl)C[C@H]3NC(=O)[C@H](N)c5ccc(O)c(c5)Oc5cc(O)cc(c5)[C@H](NC3=O)C(=O)N[C@H]4C(=O)N[C@H]3C(=O)N[C@@H]2C(=O)N[C@H](C(=O)NCCNCCCNCCN)c2cc(O)cc(O[C@H]4O[C@H](CO)[C@@H](O)[C@@H](O)[C@@H]4O)c2-c2cc3ccc2O)O[C@@H](CO)[C@@H](O)[C@@H]1O . Reported MIC?
0.125

Entry under review: NCCCN(CCCN)CCCNC(=O)[C@H]1NC(=O)[C@H]2NC(=O)[C@H](NC(=O)[C@@H]3NC(=O)[C@H]4NC(=O)[C@@H](Cc5ccc(c(Cl)c5)Oc5cc3cc(c5O)Oc3ccc(cc3Cl)[C@H]2O)NC(=O)[C@H](N)c2ccc(O)c(c2)Oc2cc(O)cc4c2)c2ccc(O)c(c2)-c2c(O)cc(O)cc21 . Reported MIC?
0.125
